# assay-comment: Inhibition of NF-kappaB expressed in human HepG2 cells assessed as inhibition of TNFalpha-induced luciferase activity preincubated for 1 hr followed by TNFalpha challenge measured after 1 hr by reporter gene assay
# Type: cell-based
recorded-endpoint: IC50 (µM)

OC[C@H]1O[C@@H](O[C@@H]2C[C@H](CCc3ccc(O)c(O)c3)O[C@H](c3ccc(O)c(O)c3)C2)[C@H](O)[C@@H](O)[C@@H]1O [PLANTAGINEOSIDE C]
8
O=C(O)c1cc(/N=N/c2ccc(S(=O)(=O)Nc3ccccn3)cc2)ccc1O
0.9

A. OC[C@H]1O[C@@H](O[C@H](CCc2ccc(O)c(O)c2)C[C@H](O)CCc2ccc(O)cc2)[C@H](O)[C@@H](O)[C@@H]1O
B. OC[C@H]1O[C@@H](O[C@H](CCc2ccc(O)cc2)C[C@H](O)CCc2ccc(O)cc2)[C@H](O)[C@@H](O)[C@@H]1O
C. OC[C@H]1O[C@@H](O[C@H](CCc2ccc(O)c(O)c2)C[C@H](O)CCc2ccc(O)c(O)c2)[C@H](O)[C@@H](O)[C@@H]1O
Exercise: Descending sort on IC50 required. Provide your answer as the labels ordered per the instruction.
Solution: C, B, A

* * *

# system-under-test: Peroxisome proliferator-activated receptor gamma (Homo sapiens, UniProt P37231)
# Sequence (P37231 whole entry): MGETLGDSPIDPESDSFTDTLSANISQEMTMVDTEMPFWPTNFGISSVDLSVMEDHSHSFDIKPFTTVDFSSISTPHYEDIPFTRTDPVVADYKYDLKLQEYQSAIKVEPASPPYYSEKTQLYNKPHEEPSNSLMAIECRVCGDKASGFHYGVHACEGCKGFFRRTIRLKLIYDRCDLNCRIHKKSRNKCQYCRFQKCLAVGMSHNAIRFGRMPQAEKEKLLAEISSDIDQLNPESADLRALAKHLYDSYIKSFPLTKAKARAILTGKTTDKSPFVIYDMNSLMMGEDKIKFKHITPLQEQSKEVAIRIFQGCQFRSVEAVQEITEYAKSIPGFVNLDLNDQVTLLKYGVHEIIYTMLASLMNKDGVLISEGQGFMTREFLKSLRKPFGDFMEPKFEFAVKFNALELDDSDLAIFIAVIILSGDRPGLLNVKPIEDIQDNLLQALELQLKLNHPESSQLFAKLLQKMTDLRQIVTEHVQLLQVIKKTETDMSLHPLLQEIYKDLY
# assay-comment: Transactivation of GAL4-fused PPARgamma ligand binding domain transfected in human HepG2 cells after 20 hrs by luciferase reporter gene assay
EC50 values by entry

Examples with their reported EC50 follow.
OC[C@H]1O[C@@H](O[C@@H]2C[C@H](CCc3ccc(O)c(O)c3)O[C@H](c3ccc(O)c(O)c3)C2)[C@H](O)[C@@H](O)[C@@H]1O [PLANTAGINEOSIDE C]
> 50 µM
OC[C@H]1O[C@@H](O[C@H](CCc2ccc(O)cc2)C[C@H](O)CCc2ccc(O)cc2)[C@H](O)[C@@H](O)[C@@H]1O
> 50 µM
OC[C@H]1O[C@@H](O[C@H](CCc2ccc(O)c(O)c2)C[C@H](O)CCc2ccc(O)cc2)[C@H](O)[C@@H](O)[C@@H]1O
> 50 µM

Exercise: EC50 lookup needed for O=C(CCCCc1ccc(O[C@@H]2O[C@H](CO)[C@@H](O)[C@H](O)[C@H]2O)c(O)c1)CCc1ccc(O[C@@H]2O[C@H](CO)[C@@H](O)[C@H](O)[C@H]2O)c(O)c1 [PLANTAGINEOSIDE A] , thanks.
Solution: > 50 µM

Exercise: Ok, now `OC[C@H]1O[C@@H](O[C@H](CCc2ccc(O)c(O)c2)C[C@H](O)CCc2ccc(O)c(O)c2)[C@H](O)[C@@H](O)[C@@H]1O`
Solution: > 50 µM

Exercise: Ok, now OC[C@H]1O[C@@H](Oc2ccc(CCCC[C@H](O)CCc3ccc(O[C@@H]4O[C@H](CO)[C@@H](O)[C@H](O)[C@H]4O)c(O)c3)cc2O)[C@H](O)[C@@H](O)[C@@H]1O [PLANTAGINEOSIDE B]
Solution: 33.1 µM
